Data credit: patent US20100041697A1

Protocol notes: Pharmacokinetic analysis of plasma (Cmax, AUC0-24h) at steady state
Assay type: in vivo, human
Measurement setup: human, in vivo, po; 750 mg q24 p.o., steady state, plasma

{"Compound": "COc1c(N2C[C@@H](C)C[C@H](N)C2)ccc2c(=O)c(C(=O)O)cn(C3CC3)c12 [Compound 1]", "Scale unit": "ng/mL", "Cmax": 6820}

* * *

Protocol notes: Pharmacokinetic analysis of plasma (Cmax, AUC0-24h) at steady state
Format: in vivo, human
Measurement setup: human, po; 500 mg q24 p.o., steady state, plasma

{"Structure": "COc1c(N2C[C@@H](C)C[C@H](N)C2)ccc2c(=O)c(C(=O)O)cn(C3CC3)c12", "AUC(0-t)": "38600 ng·h/mL"}
